test system: SW-620; assay: In vitro cytotoxic activity against colon (SW620) cell line at a concentration of 10e-5 M; assay type: functional, Homo sapiens
value_type: Growth (%)
The reply should contain only the number, in %.

For orientation, consider the following solved cases.
- compound: "CC1(C)C(=O)C=C[C@@]2(C)C1C[C@@H](OC(=O)C(F)(F)F)[C@@]1(C)C3=CC[C@@H](c4ccoc4)[C@]3(C)CCC21 (some centres not stated)"
  measured_value: 60
- compound: "CC(C)(C)OC(=O)NCC(=O)O[C@@H]1CC2C(C)(C)C(=O)C=C[C@]2(C)C2CC[C@]3(C)C(=CC[C@H]3c3ccoc3)[C@@]21C (some centres not stated)"
  measured_value: 67
- compound: "COc1ccc(/C=C\\C(=O)O[C@@H]2CC3C(C)(C)C(=O)C=C[C@]3(C)C3CC[C@]4(C)C(=CC[C@H]4c4ccoc4)[C@@]32C)cc1OC (some centres not stated)"
  measured_value: 62
- compound: "CC1(C)C(=O)C=C[C@@]2(C)C1C[C@@H](O)[C@@]1(C)C3=CC[C@@H](c4ccoc4)[C@]3(C)CCC21 (some centres not stated)"
  measured_value: 100
- compound: "CC(=O)O[C@@H]1CC2C(C)(C)/C(=N/OCCN3CCCC3)C=C[C@]2(C)C2CC[C@]3(C)C(=CC[C@H]3c3ccoc3)[C@@]21C (some centres not stated)"
  measured_value: -51

Task: I have this compound here, CCO[C@@H]1CC2C(C)(C)C(=O)C=C[C@]2(C)C2CC[C@]3(C)C(=CC[C@H]3c3ccoc3)[C@@]21C (some centres not stated) , and I need its recorded Growth.
Output: 81

Task: I have this compound here, CC1(C)C(=O)C=C[C@@]2(C)C1C[C@@H](OC(=O)Nc1ccccc1)[C@@]1(C)C3=CC[C@@H](c4ccoc4)[C@]3(C)CCC21 (some centres not stated) , and I need its recorded Growth.
Output: 64
